Values were extracted from PubChem BioAssay (NCATS).

Documented max response across a set of compounds
System: KB-3-1
Assay: Cytotoxic Profiling of Annotated Libraries Using Quantitative High-Throughput Screening (AID 1296008); also: % is scaled to controls: 0 for no effect and ±100 for the full control effect; nearly all actives have a fitted effect of over 60% in size
Details: Five cell lines viability, CellTiter-Glo ATP luminescence, 48-72 h; hits give low values
Results filed as inconclusive are left out.
Write the value in % as a bare number.

The observed max response for CO[C@H]1C=CO[C@@]2(C)Oc3c(C)c(O)c4c(O)c(c(/C=N/N5CCN(C)CC5)c(O)c4c3C2=O)NC(=O)/C(C)=C\C=C[C@H](C)[C@H](O)[C@@H](C)[C@@H](O)[C@@H](C)[C@H](OC(C)=O)[C@@H]1C when tested with KB-3-1 stands at -19.7
